Test system: NCI-H522 lung
assay_method_text: NCI tumour cell line growth inhibition, 48 h
endpoint_label: TGI

CN1CCC(n2cnc(-c3ccc(F)cc3)c2-c2ccnc(NCCO)n2)CC1 | > 25 µM
CCN(CC)CCC(=O)c1ccc(Oc2ccc(Cl)cc2)cc1 | 38 µM
COc1ccc2nc(-c3ccc(-c4noc(-c5cc(OC)c(OC)c(OC)c5)n4)cc3)[nH]c2c1 | 45.3 µM
CCc1ccccc1NC(=O)C(=O)CC(=O)c1sc(Nc2ccccc2)nc1C | > 100 µM
Cc1ccc(C2=Nc3cccc4cccc(c34)N2)cc1 | > 100 µM
N=c1c2c(C(N)=O)cn(C3OC(CO)C(O)C3O)c2ncn1O (stereo not drawn) | > 20.4 µM
Cc1ccc(N=Cc2ccc3c(c2)OCO3)cc1C | > 100 µM
NC(=O)NNc1nc2ccccc2c(=O)n1NC(=O)C(=O)Nc1ccc(Cl)cc1Cl | > 100 µM

Incoming: Return reported TGI; argument: COC(=O)[C@@]1(C)CC[C@]2(C)CC[C@]3(C)C4=CC=C5C(=CC(=O)C(O)=C5C)[C@]4(C)[C@@H](O)C[C@@]3(C)[C@@H]2C1
Outgoing: 20 µM

Incoming: Dear colleague, I am looking for the recorded TGI of the following compound: C[C@]12CC[C@@H]3c4ccc(OP(=O)(O)O)cc4CC[C@H]3[C@@H]1CCC2=O
Outgoing: > 100 µM

Incoming: Which TGI value is on record for Cc1cc(N(CCC#N)CCC#N)ccc1N=Nc1cccc(C(=O)O)c1 ?
Outgoing: > 100 µM

Incoming: If you can, please state the reported TGI value of O=C1[C@H]2ON(c3ccccc3)C(c3ccccc3Cl)[C@H]2C(=O)N1c1ccc(Cc2ccc(N3C(=O)[C@@H]4ON(c5ccccc5)C(c5ccccc5Cl)[C@@H]4C3=O)cc2)cc1 (stereo partly drawn) .
Outgoing: > 100 µM

Incoming: Would you mind telling me what TGI value was observed for Nn1c(NNC(=O)C(=O)Nc2cc(Cl)c(Cl)cc2Cl)n[nH]c1=S ?
Outgoing: > 100 µM

###

Test system: SK-OV-3 ovarian
assay_method_text: NCI tumour cell line growth inhibition, 48 h
endpoint_label: TGI

O=C1/C(=C\c2c[nH]c3ccccc23)c2ccccc2N1c1c(Cl)cccc1Cl | 5.27 µM
Cc1ccc(N=Cc2ccc3c(c2)OCO3)cc1C | > 100 µM
Cc1ccc(C2=Nc3cccc4cccc(c34)N2)cc1 | > 100 µM
Cc1nc(N)nc(N)c1-c1ccc(Cl)c(Cl)c1 | > 100 µM
COC(=O)c1ccccc1CC1Cc2ccc3c(c2C1=O)CCC3 (stereo unspecified) | > 100 µM

Now take the following compound into account.
Incoming: Bench note: what TGI did O=[N+]([O-])c1ccc(-c2nnc(C34CC5CC(CC(C5)C3)C4)o2)cc1 show?
Outgoing: > 100 µM

Recorded values, source PubChem BioAssay (NCI).
